- TEST_SUMMARY: NCI Yeast Anticancer Drug Screen. Data for the mec2-1 strain (AID 157)
- RECORDED_CONDITIONS: S. cerevisiae mec2-1 strain, at 50.0 µM
About 79,000 compounds went through this panel and 15% of them were active in at least one assay; those are over-represented in the sample as a whole. Calls of active or inactive are those of the source. No stated cut-off is given here; in the data, active means growth inhibition above about 70%; inactive means the rest.
Answer with one of the outcomes yes (1) for active, no (0) for inactive

Call for entry O=C(/C=C/c1ccccc1)CC1OC(=O)c2ccccc21 (configuration not stated) :
no (0)

Call for entry CC(C)CCC[C@@H](C)[C@H]1CC[C@H]2[C@@H]3CC=C4C[C@@H](OC(=O)c5cccc6c(=O)c7ccccc7[nH]c56)CC[C@]4(C)[C@H]3CC[C@]12C :
no (0)

Call for entry NC1(C(=O)O)CCCC1C(=O)O (configuration not stated) :
no (0)

Call for entry Fc1ccccc1-c1nnc(-c2ccc3ccccc3c2)o1 :
no (0)

Call for entry Nc1cccc(N=[N+]([O-])c2cccc(N)c2)c1 :
no (0)

Call for entry O=C(O)CCSc1ccccc1[N+](=O)[O-] :
no (0)

Call for entry CC(=O)Nc1cc(C(C)=O)ccc1C(C)=O :
no (0)

Call for entry Clc1cccc2nsnc12 :
no (0)

Call for entry O[C@@H]1CC2(Cl)CC1(Cl)C(Cl)=C2Cl (some centres not stated) :
no (0)

Call for entry NC(=O)N/N=C(\c1ccccc1)C1CCCCc2ccccc21 (configuration not stated) :
no (0)

Call for entry C=C(Cl)COc1ccc(C(=O)c2ccccc2)cc1 :
no (0)

Call for entry COc1ccc(C(CC(=O)c2ccccc2)SCCN2CCOCC2)cc1 (configuration not stated) :
no (0)

Call for entry CCCC(=O)NC(Nc1ccc(S(=O)(=O)Nc2ccc(OC)nn2)cc1)(C(F)(F)F)C(F)(F)F :
no (0)

Call for entry COc1ccc(N(CN2C(=O)CCC2=O)CS(=O)(=O)c2ccc(Cl)cc2)cc1 :
no (0)

Call for entry O=C1C2CN(Cc3ccccc3)CC2C(=O)N1c1ccccc1 (configuration not stated) :
no (0)

Call for entry O=[N+]([O-])c1c(F)cc(F)cc1F :
no (0)

Call for entry COc1cc(/C=C2\N=C(C)N(n3c(-c4ccccc4)nc4ccccc4c3=O)C2=O)cc(OC)c1OC :
no (0)

Call for entry CC(=O)Nc1ccc(-c2nnc(SCC(=O)Nc3cccc(C)c3)o2)cc1 :
no (0)

Call for entry CCC(C)C1SCC(=O)N1c1nncs1 (configuration not stated) :
no (0)

Call for entry Nc1nc2c(N)cc(C(F)(F)F)cc2nc1-c1ccccc1 :
no (0)

Call for entry CC(=O)Oc1ncnc2c1cnn2C :
no (0)

Call for entry Cc1cc(C)c(-c2c(C)cc(C)c([N+](=O)[O-])c2C)c(C)c1N :
yes (1)

###

- TEST_SUMMARY: NCI Yeast Anticancer Drug Screen. Data for the cln2 rad14 strain (AID 165);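 further: 0% = growth equal to vehicle treated cultures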
- RECORDED_CONDITIONS: S. cerevisiae cln2 rad14 strain, at 50.0 µM, active compounds read high
About 79,000 compounds went through this panel and 15% of them were active in at least one assay; those are over-represented in the sample as a whole. *1 amine or outer side, *2 acyl side, *3 side chain or, on linkers, in order; H or OH if unused. Where a SMILES comes first, the peptide text is derived from it. [ ]: non-standard residue; d: D form. X12 = NC(N)=NCC(O)CC(N[*:1])C(=O)[*:2]; Orn = NCCC[CH](N)C(=O)O
Consider the following compounds; for each one, report its growth inhibition.
I only need the number, in %, no unit after it.

Return reported growth inhibition; argument: CN1C=CCC(C=O)C1 (stereo unspecified)
-3.7

Return reported growth inhibition; argument: COc1ccc(C2OC2C(=O)c2ccccc2)cc1 (stereo unspecified)
-14.2

Return reported growth inhibition; argument: O=C(Cc1cccc(CC(=O)c2ccccc2)n1)c1ccccc1
-52.2

Return reported growth inhibition; argument: O=C1CCCCCCN1
16.6

Return reported growth inhibition; argument: C(#CC[P+](c1ccccc1)(c1ccccc1)c1ccccc1)C[P+](c1ccccc1)(c1ccccc1)c1ccccc1
3.55

Return reported growth inhibition; argument: CCCCCCCCCCCCCC(=O)OCC(=O)c1ccc(-c2ccccc2)cc1
29.9

Return reported growth inhibition; argument: OC1c2ccccc2CCCC1N1CCCCC1 (stereo unspecified)
6.75

Return reported growth inhibition; argument: O=C(O)C12C3CCC(CC3)C1(C(=O)O)C1CCC2C1 (stereo unspecified)
-24.1

Return reported growth inhibition; argument: CCCC(CCCC(=O)O)C(=O)O (stereo unspecified)
-8.2

Return reported growth inhibition; argument: CCB1OC2C(COC(C)=O)OC(OC(C)=O)C2O1 (stereo unspecified)
-9.25

Return reported growth inhibition; argument: O=C1C(=Cc2ccc([N+](=O)[O-])cc2)C(=O)c2ccccc21
24.1

Return reported growth inhibition; argument: CCN(CC)C(=O)COc1ccc(Cl)c(C)c1
27.6

Return reported growth inhibition; argument: C/C(=N/O)c1sc(-c2nc(C)c(/C(C)=N\O)s2)nc1C
4.85

Return reported growth inhibition; argument: COc1cc(Cc2c(OC)c(OC)cc(C)c2C(=O)O)cc(OC)c1
6.95

Return reported growth inhibition; argument: O=C(NCCCl)NCC1CCCO1 (stereo unspecified)
-48.9

Return reported growth inhibition; argument: O=C1CCSSCCC(=O)NCCCN1
15.2

Return reported growth inhibition; argument: CCCCCCCC/C=C\CCCCCCCC(=O)N(C)CC(=O)O
21.1

Return reported growth inhibition; argument: O=C1C=C(Nc2ccccc2C(=O)CC(=O)C(=O)Nc2ccc(Cl)cc2)c2ccccc2C1=O
-3.05

Return reported growth inhibition; argument: CCCc1cc(=O)oc2c(C=O)c(O)cc(O)c12
9.6

Return reported growth inhibition; argument: CCC(=O)C(C)C(=O)N(CC(C)C)CC(C)C (stereo unspecified)
-11.8

Return reported growth inhibition; argument: O=c1[nH]c(=O)n(C2CC(O)C(CO)O2)cc1NN=NCCc1ccccc1 (stereo unspecified)
4.85

Return reported growth inhibition; argument: CCCc1cc(=O)oc2c3c(c4c(c12)OC(C)(C)C=C4)OC(C)[C@H](C)[C@@H]3O (stereo partly specified)
8.85

Return reported growth inhibition; argument: CC(O)C(NC(=O)C(CCCN)NC(=O)C(CC(O)CN=C(N)N)NC(=O)C(N)CCCN=C(N)N)C(=O)NC(CCCN)C(=O)NC(CC(O)CN=C(N)N)C(=O)NC(Cc1ccc(O)cc1)C(=O)O (stereo unspecified) (tested in a mixture with another compound) (H-R[X12][Orn]T[Orn][X12]Y-OH; configuration not given here)
8.45

Return reported growth inhibition; argument: CS(=O)(=O)OCCCCCCCCCCCC1C=CCC1 (stereo unspecified)
11.8

Return reported growth inhibition; argument: CCN(CC)CCOC1CCCCC1Cc1ccccn1 (stereo unspecified)
-25.2

Return reported growth inhibition; argument: Nc1ncnc2c1nnn2C1CCC(CP(=O)(O)O)C1 (stereo unspecified)
17.9

Return reported growth inhibition; argument: COc1ccc2c(c1)/C(=C/c1cc(OC)c(OC)c(OC)c1)C(=O)N2
-1.4

Return reported growth inhibition; argument: Cc1ccc(-c2cn3c(nc4ccccc43)c(C)n2)cc1
-7.95

Return reported growth inhibition; argument: NC(N)=NCCCS
-7.8

Return reported growth inhibition; argument: C(=C(/C=C/C(=C/c1ccccc1)c1ccccc1)c1ccccc1)\c1ccccc1
-59

Return reported growth inhibition; argument: CC(=O)c1ccc(N2CCCCC2)cc1
-3.1

Return reported growth inhibition; argument: O=C(Nc1cccc([N+](=O)[O-])c1)N1CCCC1
-3.9

Return reported growth inhibition; argument: OCC(O)C(OC1OC(CO)C(O)C(O)C1O)c1nn(-c2ccc(F)cc2)c2nc3cc(Cl)c(Cl)cc3cc12 (stereo unspecified)
29.9

Return reported growth inhibition; argument: C=CCOC(=O)C(C)OC(=O)/C(Cl)=C/C(=O)O (stereo unspecified)
-29.4

Return reported growth inhibition; argument: Cc1nc(N/N=C/c2ccccc2Cl)[nH]c(=O)c1CCO
12.2

Return reported growth inhibition; argument: Cc1ccc2cccc3c2c1CC1(C3=O)S(=O)(=O)OCCOS1(=O)=O
14.7

###

- TEST_SUMMARY: NCI Yeast Anticancer Drug Screen. Data for the cln2 rad14 strain (AID 165);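 further: 0% = growth equal to vehicle treated cultures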
- RECORDED_CONDITIONS: S. cerevisiae cln2 rad14 strain, at 50.0 µM, active compounds read high
About 79,000 compounds went through this panel and 15% of them were active in at least one assay; those are over-represented in the sample as a whole.
ENDPOINT: growth inhibition (%)
I only need the number, in %, no unit after it.

Return reported growth inhibition; argument: CCCCCCCCCCCCCCCCCC(N)=O
-15.7

Return reported growth inhibition; argument: c1ccc2[nH]c(-c3nc4ccccc4s3)cc2c1
-60.1

Return reported growth inhibition; argument: CN(C)P1(=O)N(c2ccc(Cl)cc2)P(=O)(N(C)C)N1c1ccc(Cl)cc1 (configuration not stated)
2

Return reported growth inhibition; argument: CCC(=O)OCCN(C)C
10.8

Return reported growth inhibition; argument: CC(C)(C)OC(=O)C1/C(=C/CO)CN1C(=O)OC(C)(C)C (configuration not stated)
7.4

Return reported growth inhibition; argument: COc1ccc(-c2nnc(Cl)o2)cc1
-25.9

Return reported growth inhibition; argument: O=[N+]([O-])c1ccccc1S(=O)(=O)c1ccccc1[N+](=O)[O-]
-10

Return reported growth inhibition; argument: C=CCCC1(C)OC(C)C(C)O1 (configuration not stated)
-33

Return reported growth inhibition; argument: c1ccc(C2=NC3(CCCCC3)N=C2c2ccccc2)cc1
-32

Return reported growth inhibition; argument: Nc1cc2[nH]c(=O)c3cc([N+](=O)[O-])ccc3c2cc1Cl
4.8

Return reported growth inhibition; argument: Cc1nc(Nc2ccc(Cl)c(Cl)c2)sc1C(/C=C/c1ccc2c(c1)OCO2)=N/Nc1ccc([N+](=O)[O-])cc1[N+](=O)[O-]
3.45

Return reported growth inhibition; argument: O=c1[nH]c(SCc2ccco2)nc2ccccc12
-23.7

Return reported growth inhibition; argument: CSc1nc2nc(C)c(C)nc2c(=O)[nH]1
3.9

Return reported growth inhibition; argument: CCOC(=O)C1=C(O)CSC1=Nc1ccccc1
-9.3

Return reported growth inhibition; argument: Cc1ccccc1NC(=O)C(=O)C(C#N)c1ccc(Cl)cc1Cl (configuration not stated)
-19.6

Return reported growth inhibition; argument: CC1(C)N=C(N)N=C(N)N1c1cccc(CO)c1
-2.45

Return reported growth inhibition; argument: Cc1nc2nncn2c(=O)[nH]1
15.4

Return reported growth inhibition; argument: CCCCNC(=O)OCCN(C)CCOC(=O)NCCCC
3.05

Return reported growth inhibition; argument: CCN(CC)CC
-53.4

Return reported growth inhibition; argument: O=C=Nc1ccc(Cc2ccc(N=C=O)cc2)cc1
-15.2

Return reported growth inhibition; argument: C=C1C(OC(C)=O)CC(OC(C)=O)C2(C)C(OC(C)=O)C(OC(C)=O)C3=C(C)C(OC(=O)/C=C/c4ccccc4)CC(C(OC(C)=O)C12)C3(C)C (configuration not stated)
-4.75

Return reported growth inhibition; argument: CN(C)CC1CCc2ccccc2C1=O (configuration not stated)
-2.05

Return reported growth inhibition; argument: O=C(CN1C(=O)c2ccccc2C1=O)NC(Cc1ccccc1)C(=O)O (configuration not stated)
-12.5

Return reported growth inhibition; argument: N=C(N)N1CCC(N2CCOCC2)CC1
-24.4

Return reported growth inhibition; argument: O=[N+]([O-])c1ccc(Nc2ccccc2)nc1
2.7

Return reported growth inhibition; argument: O=C(O)c1cc2ccccc2c2cc3ccccc3cc12
57.3

Return reported growth inhibition; argument: CCOC(=O)C1CSCN1C(C)=O (configuration not stated)
-34.5

Return reported growth inhibition; argument: [O-]c1c[n+](CCCC[n+]2cc([O-])on2)no1
3.55

Return reported growth inhibition; argument: COc1cc(/C=N/NC2=NCCCN2)ccc1O
-16.2

Return reported growth inhibition; argument: O=C1NC(N2CCCC(CO)C2)=N/C1=C\c1ccc(Cl)cc1 (configuration not stated)
23.6

Return reported growth inhibition; argument: O=[N+]([O-])c1ccc(Sc2ccc([N+](=O)[O-])cc2)cc1
22.6

Return reported growth inhibition; argument: N#C/C(=C\NC(=S)C(N)=S)C(=O)c1ccc2ccccc2c1
33.5

Return reported growth inhibition; argument: CC1(C)[C@H](C(=O)O)CC[C@]1(C)C(=O)O
19.2

Return reported growth inhibition; argument: CC1CCC(C(C)C)C(OC(=O)N/N=C/N(C)C)C1 (configuration not stated)
20

Return reported growth inhibition; argument: CCCCOB(OCCCC)Oc1c(C(C)(C)C)cc(C)cc1C(C)(C)C
15.5

Return reported growth inhibition; argument: O=C(Nc1ccccc1Cl)c1ccc(F)cc1
7.4

Return reported growth inhibition; argument: CCOC(=O)/C(=N/Nc1ccc(C)cc1)N1C(=S)C=C(C)NN(C)C1=S
-13.3

Return reported growth inhibition; argument: CC1(C)OC2C(=O)C3COC(O3)C2O1 (configuration not stated)
-36

Return reported growth inhibition; argument: CC(CO)(CO)N1C(=O)c2cccc3cc([N+](=O)[O-])cc(c23)C1=O
31.1

Return reported growth inhibition; argument: COc1ccc(C)cc1NC(=O)c1c(Br)c(Br)c(Br)c(Br)c1C(=O)O
12.8

Return reported growth inhibition; argument: CN1CNc2nc(N)n(C)c(=O)c2C1
11.8

Return reported growth inhibition; argument: Cc1ccc(N=Cc2cc(Cl)cc(Cl)c2OC(=O)c2ccccc2)cc1C
90.2
